# ASSAY DETAILS: Stability test of pasta rods with selected mediators stored at different temperatures
# Type: physicochemical
# Parameters: unit not given here
# SETTINGS: 4°C; listed as b; Time 0
# if value of activity of rod in stability test reaches 10, tag Y; if it stays below, tag N

Textbook exercise: given the entry "CN(C)c1ccc(N2CCOCC2)cc1" , state whether its activity of rod in stability test is greater than or equal to 10. Y

Textbook exercise: given the entry "c1cc(N2CCOCC2)ccc1N1CCCCC1" , state whether its activity of rod in stability test is greater than or equal to 10. N

Textbook exercise: given the entry "c1cc(N2CCOCC2)ccc1N1CCOCC1" , state whether its activity of rod in stability test is greater than or equal to 10. Y

Textbook exercise: given the entry "c1cc(N2CCCCC2)ccc1N1CCCCC1" , state whether its activity of rod in stability test is greater than or equal to 10. Y

###

# SUBJECT OF TEST: UniProt P13006
# Sequence (P13006 17-605, species assumed): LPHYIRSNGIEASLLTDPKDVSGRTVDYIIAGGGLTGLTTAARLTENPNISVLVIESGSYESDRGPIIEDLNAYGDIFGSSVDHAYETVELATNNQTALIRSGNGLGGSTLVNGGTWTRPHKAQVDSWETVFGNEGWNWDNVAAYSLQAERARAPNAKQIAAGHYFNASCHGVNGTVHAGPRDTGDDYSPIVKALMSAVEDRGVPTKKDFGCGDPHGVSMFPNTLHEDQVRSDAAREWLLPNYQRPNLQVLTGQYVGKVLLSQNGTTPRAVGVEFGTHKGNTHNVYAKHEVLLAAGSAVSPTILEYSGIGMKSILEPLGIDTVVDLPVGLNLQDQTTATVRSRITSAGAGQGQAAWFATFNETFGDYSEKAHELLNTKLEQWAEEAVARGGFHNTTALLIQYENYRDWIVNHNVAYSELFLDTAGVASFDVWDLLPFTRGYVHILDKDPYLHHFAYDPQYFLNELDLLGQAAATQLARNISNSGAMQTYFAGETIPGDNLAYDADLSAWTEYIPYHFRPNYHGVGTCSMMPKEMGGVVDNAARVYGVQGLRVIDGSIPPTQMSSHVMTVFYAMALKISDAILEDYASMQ
# ASSAY DETAILS: Chronoamperometry of GOD-graphite/paraffin pasta electrode containing the mediator (glucose measurement)
# Format: biochemical
# SETTINGS: at 7mM glucose
# Description: Glucose oxidase (GOD) (E.C.1.1.3.4.) was immobilized on graphite particles by the following procedure: 10 g of graphite was oxidized in air at 100°C for 24 hours. The surface oxidized graphite particles were activated with 500 mg of 1-cyclohexyl-3-(2-morpholinoethyl)carbodiimide metho-p-toluenesulfonate in 100 ml of 0.1 M acetate buffer (pH 4.76) for 2 hours, then washed with distilled water until an approximately neutral pH value and dried. […]
Just a reminder that ties go to class 0: only Signal to noice ration strictly below 8 counts as class 1.

Report whether reported Signal to noice ration is lower than 8 (strictly) for "c1cc(N2CCOCC2)ccc1N1CCCCC1" class 0

Report whether reported Signal to noice ration is lower than 8 (strictly) for "CN(C)c1ccc2c(c1)Sc1c(ccc(N(C)C)c1[N+](=O)[O-])N2" class 0

Report whether reported Signal to noice ration is lower than 8 (strictly) for "c1cc(N2CCOCC2)ccc1N1CCOCC1" class 1

Report whether reported Signal to noice ration is lower than 8 (strictly) for "c1cc(N2CCCCC2)ccc1N1CCCCC1" class 1

Report whether reported Signal to noice ration is lower than 8 (strictly) for "CN(C)c1ccc(N2CCOCC2)cc1" class 0

Report whether reported Signal to noice ration is lower than 8 (strictly) for "C[N+](C)=c1ccc2nc3c(ccc4ccccc43)oc-2c1" class 1

###

Please provide measured activity of rod in stability test for the entries that follow.
# ASSAY DETAILS: Stability test of pasta rods with selected mediators stored at different temperatures
# Type: physicochemical
# Parameters: unit not given here
# SETTINGS: 35°C; listed as a; Time 0
Give your answer as a number; write no unit.

c1cc(N2CCOCC2)ccc1N1CCOCC1 [BMP, 1,4-dimorpholinobenzene] yielded activity of rod in stability test of 20.0

c1cc(N2CCOCC2)ccc1N1CCCCC1 [MPP, 1-morpholino-4-piperidinobenzene] yielded activity of rod in stability test of 7.0

CN(C)c1ccc2c(c1)Sc1c(ccc(N(C)C)c1[N+](=O)[O-])N2 [MG] yielded activity of rod in stability test of 12.1

c1cc(N2CCCCC2)ccc1N1CCCCC1 [BPP, 1,4-dipiperidinobenzene] yielded activity of rod in stability test of 9.1

CN(C)c1ccc(N2CCOCC2)cc1 [MDMP, 1-dimethylamino-4-morpholinobenzene] yielded activity of rod in stability test of 15.4

###

# ASSAY DETAILS: Stability test of pasta rods with selected mediators stored at different temperatures
# Format: physicochemical
# Design: unit not given here
# SETTINGS: 4°C; listed as a; Time 0
Please provide measured activity of rod in stability test for the entries that follow.
Give your answer as a number; write no unit.

"c1cc(N2CCOCC2)ccc1N1CCCCC1" yielded activity of rod in stability test of 11.7

"c1cc(N2CCCCC2)ccc1N1CCCCC1" yielded activity of rod in stability test of 12.3

"CN(C)c1ccc(N2CCOCC2)cc1" yielded activity of rod in stability test of 17.2

"c1cc(N2CCOCC2)ccc1N1CCOCC1" yielded activity of rod in stability test of 20.2

"CN(C)c1ccc2c(c1)Sc1c(ccc(N(C)C)c1[N+](=O)[O-])N2" yielded activity of rod in stability test of 13.7
